System: Alopecurus myosuroides (ALOMY)
Assay: Example B post-emergence herbicidal greenhouse test
Type: in vivo
Details: 360 h, evaluated after 15 days, 100=total damage to plant, 0=no damage
Method: Seeds of a variety of test species were sown in standard soil in pots. […] The test plants were then grown in a greenhouse under optimum conditions until, 15 days later for post-emergence and 20 days for pre-emergence, the test was evaluated (100=total damage to plant; 0=no damage to plant). […]
Class Met: pest or weed control at 125 g/ha at least 60%. Class Not met: pest or weed control at 125 g/ha below 60%.

Solved cases below.
Compound	Category Label
Cc1ccc(-c2ccc(Cl)cc2F)cc1C1=C(O)[C@H]2CC[C@H](C2)C1=O (single isomer, unassigned) [Compound T27]	Not met
CCc1ccc(-c2ccc(Cl)cc2)cc1C1=C(O)[C@H]2CC[C@H](C2)C1=O [Compound T4]	Met

Answer whether pest or weed control at 125 g/ha of Cc1ccc(-c2ccc(Cl)cc2)cc1C1=C(O)[C@H]2CC[C@H](C2)C1=O [Compound T1] is greater than or equal to 60%.
Not met

Answer whether pest or weed control at 125 g/ha of CCc1cc(-c2ccc(Cl)cc2)ccc1C1=C(OC(C)=O)[C@@H]2CC[C@@H](C2)C1=O [Compound P3] is greater than or equal to 60%.
Met

Answer whether pest or weed control at 125 g/ha of CCc1cc(-c2ccc(C)cc2)cc(CC)c1C1=C(O)[C@H]2CC[C@H](C2)C1=O [Compound T63] is greater than or equal to 60%.
Not met
